Molecular target: Androgen receptor (Homo sapiens)
Sequence (P10275 whole entry): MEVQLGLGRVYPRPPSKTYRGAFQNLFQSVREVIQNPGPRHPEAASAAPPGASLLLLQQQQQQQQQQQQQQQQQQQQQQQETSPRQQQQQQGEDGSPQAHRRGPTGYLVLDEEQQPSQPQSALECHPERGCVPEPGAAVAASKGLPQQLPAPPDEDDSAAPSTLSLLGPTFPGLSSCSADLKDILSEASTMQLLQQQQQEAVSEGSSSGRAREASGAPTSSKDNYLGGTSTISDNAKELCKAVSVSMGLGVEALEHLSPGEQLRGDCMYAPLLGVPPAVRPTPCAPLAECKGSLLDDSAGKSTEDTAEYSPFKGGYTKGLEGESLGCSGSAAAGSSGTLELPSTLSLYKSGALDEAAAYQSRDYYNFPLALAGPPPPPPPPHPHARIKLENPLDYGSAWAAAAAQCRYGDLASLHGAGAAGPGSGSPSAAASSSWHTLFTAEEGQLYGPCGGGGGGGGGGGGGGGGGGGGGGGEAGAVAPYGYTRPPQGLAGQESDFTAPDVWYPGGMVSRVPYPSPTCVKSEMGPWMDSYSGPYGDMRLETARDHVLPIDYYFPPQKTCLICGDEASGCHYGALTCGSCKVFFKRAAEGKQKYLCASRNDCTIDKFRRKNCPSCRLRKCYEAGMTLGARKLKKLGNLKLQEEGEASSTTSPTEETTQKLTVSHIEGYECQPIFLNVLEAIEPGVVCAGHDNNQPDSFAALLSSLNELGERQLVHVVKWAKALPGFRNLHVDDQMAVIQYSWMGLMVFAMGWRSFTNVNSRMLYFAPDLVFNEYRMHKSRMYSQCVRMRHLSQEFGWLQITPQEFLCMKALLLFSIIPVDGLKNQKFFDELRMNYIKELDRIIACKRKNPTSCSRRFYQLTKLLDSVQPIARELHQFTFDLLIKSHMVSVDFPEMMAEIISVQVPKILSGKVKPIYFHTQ
Test: Antagonist activity against Androgen receptor; not active
Assay type: functional
pIC50: −log10 of the molar value.
Measurement type: pIC50

# Chemical string, Measurement type, Test value
rows = [
    ("CC(C)=C/C=C1\\Oc2ccc(F)cc2-c2ccc3c(c21)C(C)=CC(C)(C)N3", "pIC50", "< 6.00"),
]

====

# maps each entry to its pIC50
Target: Progesterone receptor (Homo sapiens, UniProt P06401)
Sequence (P06401 whole entry): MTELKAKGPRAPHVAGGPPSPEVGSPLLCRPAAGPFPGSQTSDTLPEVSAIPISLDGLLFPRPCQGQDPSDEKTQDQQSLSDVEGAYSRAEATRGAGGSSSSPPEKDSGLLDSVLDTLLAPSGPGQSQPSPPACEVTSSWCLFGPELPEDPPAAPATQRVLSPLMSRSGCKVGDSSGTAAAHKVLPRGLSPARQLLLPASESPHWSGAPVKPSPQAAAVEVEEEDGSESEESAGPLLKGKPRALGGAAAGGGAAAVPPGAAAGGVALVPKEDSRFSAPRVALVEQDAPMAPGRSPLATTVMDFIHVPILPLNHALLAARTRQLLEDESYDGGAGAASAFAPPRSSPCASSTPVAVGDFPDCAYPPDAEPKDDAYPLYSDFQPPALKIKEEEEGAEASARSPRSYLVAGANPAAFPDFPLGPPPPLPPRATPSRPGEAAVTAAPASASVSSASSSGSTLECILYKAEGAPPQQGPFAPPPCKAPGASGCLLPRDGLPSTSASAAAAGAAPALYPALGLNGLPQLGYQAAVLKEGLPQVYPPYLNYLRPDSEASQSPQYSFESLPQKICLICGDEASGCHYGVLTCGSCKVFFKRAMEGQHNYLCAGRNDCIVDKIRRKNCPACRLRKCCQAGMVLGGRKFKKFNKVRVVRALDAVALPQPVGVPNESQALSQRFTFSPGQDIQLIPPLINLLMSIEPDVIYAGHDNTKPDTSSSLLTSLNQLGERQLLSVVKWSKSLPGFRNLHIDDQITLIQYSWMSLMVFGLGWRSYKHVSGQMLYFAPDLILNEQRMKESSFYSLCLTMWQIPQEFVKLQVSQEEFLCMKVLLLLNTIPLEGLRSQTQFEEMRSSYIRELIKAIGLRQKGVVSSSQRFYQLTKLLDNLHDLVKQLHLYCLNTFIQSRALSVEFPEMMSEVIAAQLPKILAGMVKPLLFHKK
Test: Inhibitory concentration for antagonistic activity towards human progesterone receptor (hPR) using the cotransfection assay in CV-1 cells
Type: functional, cell-based
pIC50: −log10 of the molar value.
Measurement type: pIC50

# Chemical string, Measurement type, Test value
records = [
    ("CC1=CC(C)(C)Nc2ccc3c(c21)/C(=C/C1CCCCC1)Oc1ccc(F)cc1-3", "pIC50", 6.10),
    ("CC(=O)/C=C1\\Oc2ccc(F)cc2-c2ccc3c(c21)C(C)=CC(C)(C)N3", "pIC50", 6.91),
    ("CC1=CC(C)(C)Nc2ccc3c(c21)/C(=C/C=O)Oc1ccc(F)cc1-3", "pIC50", 6.61),
    ("CC/C(C)=C1/Oc2ccc(F)cc2-c2ccc3c(c21)C(C)=CC(C)(C)N3", "pIC50", 6.01),
    ("CC1=CC(C)(C)Nc2ccc3c(c21)/C(=C/C#N)Oc1ccc(F)cc1-3", "pIC50", 7.19),
    ("CC1=CC(C)(C)Nc2ccc3c(c21)C(=C(c1ccccc1)c1ccccc1)Oc1ccc(F)cc1-3", "pIC50", 5.71),
]

====

# maps each entry to its Efficacy
Molecular target: Progesterone receptor (Homo sapiens) (UniProt P06401)
Test: Antagonistic efficacy towards human progesterone receptor (hPR) using the cotransfection assay in CV-1 cells
Type: functional, cell-based

# Chemical string, Value units, Efficacy
data = [
    ("CC/C(C)=C1/Oc2ccc(F)cc2-c2ccc3c(c21)C(C)=CC(C)(C)N3", "%", 38),
    ("CC1=CC(C)(C)Nc2ccc3c(c21)/C(=C/C1CCCCC1)Oc1ccc(F)cc1-3", "%", 70),
    ("CC1=CC(C)(C)Nc2ccc3c(c21)/C(=C/C=O)Oc1ccc(F)cc1-3", "%", 97),
    ("CC1=CC(C)(C)Nc2ccc3c(c21)/C(=C/C#N)Oc1ccc(F)cc1-3", "%", 75),
    ("CC(=O)/C=C1\\Oc2ccc(F)cc2-c2ccc3c(c21)C(C)=CC(C)(C)N3", "%", 91),
    ("CC1=CC(C)(C)Nc2ccc3c(c21)C(=C(c1ccccc1)c1ccccc1)Oc1ccc(F)cc1-3", "%", 90),
]

====

Molecular target: Progesterone receptor (Homo sapiens)
Assay: Binding affinity to human progesterone receptor
# maps each entry to its Ki

# Compound, Qual, Ki / nM
records = [
    ("CC/C(C)=C1\\Oc2ccc(F)cc2-c2ccc3c(c21)C(C)=CC(C)(C)N3", "=", 8),
    ("CC/C(C)=C1/Oc2ccc(F)cc2-c2ccc3c(c21)C(C)=CC(C)(C)N3", "=", 16.7),
    ("C=C(/C=C1\\Oc2ccc(F)cc2-c2ccc3c(c21)C(C)=CC(C)(C)N3)C(C)C", "=", 26),
    ("CC1=CC(C)(C)Nc2ccc3c(c21)/C(=C/C=O)Oc1ccc(F)cc1-3", ">", 100),
    ("CC1=CC(C)(C)Nc2ccc3c(c21)/C(=C/C1CCCCC1)Oc1ccc(F)cc1-3", ">", 100),
    ("CC(=O)C[C@]1(C(C)=O)CC[C@H]2C3C[C@H](C)C4=CC(=O)CC[C@]4(C)[C@H]3CC[C@@]21C (some centres not stated)", "=", 0.34),
    ("C=C1Oc2ccc(F)cc2-c2ccc3c(c21)C(C)=CC(C)(C)N3", "=", 6.1),
    ("CCC/C=C1\\Oc2ccc(F)cc2-c2ccc3c(c21)C(C)=CC(C)(C)N3", "=", 3.1),
    ("CC(=O)/C=C1\\Oc2ccc(F)cc2-c2ccc3c(c21)C(C)=CC(C)(C)N3", ">", 100),
    ("CC1=CC(C)(C)Nc2ccc3c(c21)C(=C(c1ccccc1)c1ccccc1)Oc1ccc(F)cc1-3", ">", 100),
    ("CC1=CC(C)(C)Nc2ccc3c(c21)/C(=C/Br)Oc1ccc(F)cc1-3", "=", 2.1),
    ("CC1=CC(C)(C)Nc2ccc3c(c21)/C(=C/C#N)Oc1ccc(F)cc1-3", "=", 45),
]

====

Biological target: Progesterone receptor (Homo sapiens, UniProt P06401)
Test: Effective concentration for agonist activity towards human progesterone receptor (hPR) using the cotransfection assay in CV-1 cells
Assay type: functional, cell-based
Measurement type: EC50 (nM)

# Chemical string, Measurement type, Test value
data = [
    ("CC(C)=C/C=C1\\Oc2ccc(F)cc2-c2ccc3c(c21)C(C)=CC(C)(C)N3", "EC50", 1.7),
    ("C=C1Oc2ccc(F)cc2-c2ccc3c(c21)C(C)=CC(C)(C)N3", "EC50", 1000),
    ("CC1=CC(C)(C)Nc2ccc3c(c21)/C(=C/Br)Oc1ccc(F)cc1-3", "EC50", 2.2),
]
